Each recorded value in this set is attributed to patent US20200069592A1.

# procedure text: Plasma pharmacokinetics after single PO or IV administration (Example 5), LC-MS/MS
# test settings: female, Sprague-Dawley, rat, plasma, po, 24 mg/kg, Tmax (hr) Mean ± StdDev, Group 11: 24 mg/kg PO, ORA-Plus; dosed as 2HCl, single dose
reported property: Tmax
Please make sure the unit comes right after the number.

Looking up CC(C)NCCCn1c(Sc2cc3c(cc2I)OCO3)nc2c(N)ncnc21 [Compound 1] , I see its Tmax listed as 2 h

---

# procedure text: Plasma pharmacokinetics after single PO or IV administration (Example 5), LC-MS/MS
# test settings: female, Sprague-Dawley, rat, plasma, iv, 24 mg/kg, Tmax (hr) Mean ± StdDev, Group 19: 24 mg/kg IV, 0.9% Saline; dosed as 2HCl
reported property: Tmax (min)
Give just the numeric value; min need not be written.

Record CC(C)NCCCn1c(Sc2cc3c(cc2I)OCO3)nc2c(N)ncnc21 , field Tmax: 18.6

---

# procedure text: Plasma pharmacokinetics after single PO or IV administration (Example 5), LC-MS/MS
# test settings: female, Sprague Dawley, rat, plasma, po, 36 mg/kg, AUC0-last (hr*ng/mL) Mean ± StdDev, Group 6: 36 mg/kg PO, 60 mM Citric acid buffer + 30% Captisol; free base
reported property: AUC(0-t) (ng·h/mL)
# output: bare number, implied unit ng·h/mL

What the record says about CC(C)(C)CNCCn1c(Sc2cc3c(cc2I)OCO3)nc2c(N)ncnc21 [Compound 2] : AUC(0-t) is 2940

---

# procedure text: Solubility / compatibility testing in drinking solution vehicles and ingredients (Example 7)
# Format: physicochemical
# test settings: Flavor Sweet (sugar free) vehicle, aqueous with cosolvent or surfactant or cyclodextrin; API in Flavor Sweet (sugar free); read-out: Solubility testing result: Precipitate at
reported property: solubility

Summary for this compound, CC(C)NCCCn1c(Sc2cc3c(cc2I)OCO3)nc2c(N)ncnc21 [Compound 1 2HCl] : solubility is < 5000 µg/mL

---

# procedure text: Plasma pharmacokinetics after single PO or IV administration (Example 5), LC-MS/MS
# test settings: female, Sprague-Dawley, rat, plasma, po, 36 mg/kg, Tmax (hr) Mean ± StdDev, Group 12: 36 mg/kg PO, ORA-Plus; dosed as 2HCl
reported property: Tmax (h)
A number alone suffices; assume h.

Per the record, CC(C)NCCCn1c(Sc2cc3c(cc2I)OCO3)nc2c(N)ncnc21 has Tmax of 2

---

# procedure text: Plasma pharmacokinetics after single oral dose in ORA-Plus or SyrSpend SF (Example 6), LC-MS/MS
# Format: in vivo, Sprague Dawley rats
# test settings: female, Sprague Dawley, rat, plasma, po, 48 mg/kg, G6: 2HCl, 48 mg/kg single oral dose, ORA-plus, rat plasma
reported property: AUC(0-t) (ng·h/mL)
Report the value in ng·h/mL with no unit label.

Entry CC(C)NCCCn1c(Sc2cc3c(cc2I)OCO3)nc2c(N)ncnc21 [Compound 1 2HCl] — recorded AUC(0-t) = 7930

---

# procedure text: Plasma pharmacokinetics after single oral dose in ORA-Plus or SyrSpend SF (Example 6), LC-MS/MS
# Format: in vivo, Sprague Dawley rats
# test settings: female, Sprague Dawley, rat, plasma, po, 48 mg/kg, G6: 2HCl, 48 mg/kg single oral dose, ORA-plus, rat plasma
reported property: AUC(0-inf) (ng·h/mL)
Give a bare numeral; the unit ng·h/mL is implied.

Lab note: measured AUC(0-inf) of CC(C)NCCCn1c(Sc2cc3c(cc2I)OCO3)nc2c(N)ncnc21 [Compound 1 2HCl] was 8040
